Molecular target: EGFR(L858R)(h) (Homo sapiens, UniProt P00533, L858R)
Experiment: Kinase Profiling Assay
Assay type: biochemical
Conditions: peptide 100 μM
No end group written: not given here.
test_readout: % activity
Include the unit right after the number.

INSERT INTO results (seq, value) VALUES
  ('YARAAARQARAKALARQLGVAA [MMI-0100]', '76%'),
  ('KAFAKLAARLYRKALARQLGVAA [MMI-0400]', '52%'),
  ('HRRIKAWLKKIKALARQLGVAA (Mammal) [MMI-0500]', '26%');

# context switch: different sequence, same % activity
The reported value for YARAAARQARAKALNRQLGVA (Mammal) [MMI-0200] in terms of % activity is 120%

----------
We begin with a simple list: items and their reported % activity.
Target: PDGFRβ(h) (Homo sapiens)
Sequence (P09619 33-1106): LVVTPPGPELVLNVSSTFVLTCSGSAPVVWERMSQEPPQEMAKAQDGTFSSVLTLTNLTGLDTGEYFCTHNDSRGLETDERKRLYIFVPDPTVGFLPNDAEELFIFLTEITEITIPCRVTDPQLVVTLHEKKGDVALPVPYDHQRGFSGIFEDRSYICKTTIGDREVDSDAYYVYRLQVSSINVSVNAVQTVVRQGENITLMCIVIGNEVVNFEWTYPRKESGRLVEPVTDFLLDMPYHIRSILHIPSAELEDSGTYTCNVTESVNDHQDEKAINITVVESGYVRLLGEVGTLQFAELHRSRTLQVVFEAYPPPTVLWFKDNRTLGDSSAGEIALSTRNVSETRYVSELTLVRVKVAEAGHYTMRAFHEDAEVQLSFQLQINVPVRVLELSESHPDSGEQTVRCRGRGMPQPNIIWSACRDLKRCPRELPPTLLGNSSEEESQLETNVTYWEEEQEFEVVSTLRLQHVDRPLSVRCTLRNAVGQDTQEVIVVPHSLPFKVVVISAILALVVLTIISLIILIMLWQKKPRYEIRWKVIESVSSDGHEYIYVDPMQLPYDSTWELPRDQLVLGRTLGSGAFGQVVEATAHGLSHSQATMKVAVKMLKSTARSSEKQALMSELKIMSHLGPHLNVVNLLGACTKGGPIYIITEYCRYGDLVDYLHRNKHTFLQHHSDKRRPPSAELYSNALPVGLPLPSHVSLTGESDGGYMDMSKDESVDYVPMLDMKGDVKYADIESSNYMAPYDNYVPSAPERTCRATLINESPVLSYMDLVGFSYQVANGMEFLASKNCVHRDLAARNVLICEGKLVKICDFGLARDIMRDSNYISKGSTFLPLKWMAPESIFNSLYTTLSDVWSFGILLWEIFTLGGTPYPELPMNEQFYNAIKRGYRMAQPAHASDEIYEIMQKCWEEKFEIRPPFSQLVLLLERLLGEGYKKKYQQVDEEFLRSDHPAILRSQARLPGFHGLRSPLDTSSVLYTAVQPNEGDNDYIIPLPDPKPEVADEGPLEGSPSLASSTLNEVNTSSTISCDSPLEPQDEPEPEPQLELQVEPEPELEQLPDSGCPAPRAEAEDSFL
Test: Kinase Profiling Assay
Type: biochemical
Details: peptide 100 μM
Express your answer in %, writing the number without its unit.

Given the sequence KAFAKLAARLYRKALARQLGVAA [MMI-0400] and test system PDGFRβ(h) (Homo sapiens), the measured % activity is 53

Given the sequence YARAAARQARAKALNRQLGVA (Mammal) [MMI-0200] and test system PDGFRβ(h) (Homo sapiens), the measured % activity is 137

Given the sequence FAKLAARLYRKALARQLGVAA [MMI-0300] and test system PDGFRβ(h) (Homo sapiens), the measured % activity is 81

Given the sequence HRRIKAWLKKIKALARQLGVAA (Mammal) [MMI-0500] and test system PDGFRβ(h) (Homo sapiens), the measured % activity is 40

----------
We begin with a simple list: items and their reported % activity.
Target: EphB1(h) (Homo sapiens)
Sequence (P54762 18-984): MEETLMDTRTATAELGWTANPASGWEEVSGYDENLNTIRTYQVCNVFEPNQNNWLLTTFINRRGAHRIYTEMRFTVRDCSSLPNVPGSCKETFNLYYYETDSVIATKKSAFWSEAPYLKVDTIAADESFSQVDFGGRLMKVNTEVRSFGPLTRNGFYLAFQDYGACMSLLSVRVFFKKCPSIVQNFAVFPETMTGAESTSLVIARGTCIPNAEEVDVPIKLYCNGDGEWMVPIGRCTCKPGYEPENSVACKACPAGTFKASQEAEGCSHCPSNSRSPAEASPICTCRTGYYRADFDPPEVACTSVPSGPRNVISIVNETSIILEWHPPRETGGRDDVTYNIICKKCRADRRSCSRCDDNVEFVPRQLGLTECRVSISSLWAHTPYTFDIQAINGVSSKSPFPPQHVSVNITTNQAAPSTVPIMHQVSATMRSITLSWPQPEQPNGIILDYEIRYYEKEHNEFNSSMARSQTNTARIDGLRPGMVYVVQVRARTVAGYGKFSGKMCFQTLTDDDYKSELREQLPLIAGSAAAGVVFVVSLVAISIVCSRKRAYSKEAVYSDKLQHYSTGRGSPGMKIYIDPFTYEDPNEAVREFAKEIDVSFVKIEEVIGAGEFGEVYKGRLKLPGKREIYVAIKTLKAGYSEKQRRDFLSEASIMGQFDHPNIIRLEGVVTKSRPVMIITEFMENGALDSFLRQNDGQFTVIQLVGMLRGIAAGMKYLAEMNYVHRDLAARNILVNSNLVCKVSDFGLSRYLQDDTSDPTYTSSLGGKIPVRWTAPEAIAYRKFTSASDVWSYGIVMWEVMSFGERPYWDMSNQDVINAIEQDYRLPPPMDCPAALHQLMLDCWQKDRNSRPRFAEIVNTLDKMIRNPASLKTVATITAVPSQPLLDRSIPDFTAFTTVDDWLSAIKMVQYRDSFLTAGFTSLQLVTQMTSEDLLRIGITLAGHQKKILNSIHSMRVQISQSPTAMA
Test: Kinase Profiling Assay
Format: biochemical
Conditions: peptide 100 μM
No end group written: not given here.
Express your answer in %, writing the number without its unit.

Some solved cases for reference:
INSERT INTO assay_data (seq, value) VALUES
  ('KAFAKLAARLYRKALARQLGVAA [MMI-0400]', 58),
  ('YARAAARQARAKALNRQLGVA (Mammal) [MMI-0200]', 95),
  ('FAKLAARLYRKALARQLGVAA [MMI-0300]', 44),
  ('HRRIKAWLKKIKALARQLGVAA (Mammal) [MMI-0500]', 37);

# context switch: different sequence, same % activity
Given the sequence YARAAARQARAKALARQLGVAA [MMI-0100] and test system EphB1(h) (Homo sapiens), the measured % activity is 99
